These entries and their values trace back to patent US20260234115A1.

- Tested on: mouse organs
- assay.protocol: In vivo activity screening in mice: organ mean total flux (p/s) of luciferase activity after injection of F2 LNP pools (Table 6, FIG. 7A-7C)
- test.parameters: Mouse 1, dose 0.3 mg/kg, luciferase mRNA
Marks after values point to notes of the source that are not given here.
recorded.endpoint: Organ Mean Total Flux Lung

molecule: CCCCC/C=C\CCOC(=O)CCCCCCC(=O)OCC(COC(=O)CCCCCCC(=O)OCC/C=C\CCCCC)(COC(=O)CCC(CCCCCC)OC(=O)NCCN1CCCC1)COC(=O)CCC(OCCCCCCCC)OCCCCCCCC (stereo not drawn)
Organ Mean Total Flux Lung: 0.7 p/s (×10^6)

# Organ Mean Total Flux Lung (molecule: CCCCC/C=C\C/C=C\CCCCCCCC(=O)OCC(COC(=O)CCCCCCC/C=C\C/C=C\CCCCC)(COC(=O)CCC(CCCCCC)OC(=O)NCCN1CCCC1)COC(=O)CCC(OCCCCCCCC)OCCCCCCCC (stereo not drawn) ) is 17.6 p/s (×10^6)

# Organ Mean Total Flux Lung (molecule: CCCCCCCC/C=C\CCCCCCCC(=O)OCC(COC(=O)CCCCCCC/C=C\CCCCCCCC)(COC(=O)CCC(CCCCCC)OC(=O)NCCN1CCCC1)COC(=O)CC12CC3CC(CC(C3)C1)C2 (stereo not drawn) ) is 0.7 p/s (×10^6)

====

- assay.protocol: Dynamic light scattering: LNP particle size and PDI
- Format: physicochemical
- test.parameters: LNP, Formulation F4, N/P 3
recorded.endpoint: PDI N/P:3
The reply should be a number, written without any unit.

Sample answers from the record:
molecule: CCCCCCCC/C=C\CCCCCCCC(=O)OCC(COC(=O)CCCCCCC/C=C\CCCCCCCC)(COC(=O)CCC(CCCCCC)OC(=O)NCCN1CCCC1)COC(=O)CCC(OCCCCCCCC)OCCCCCCCC (stereo not shown)
result.number: 0.068
//
molecule: CCCCC/C=C\C/C=C\CCCCCCCC(=O)OCC(COC(=O)CCCCCCC/C=C\C/C=C\CCCCC)(COC(=O)CCC(CCCCCC)OC(=O)NCCN1CCCC1)COC(=O)CCC(OCCCCCCCC)OCCCCCCCC (stereo not shown)
result.number: 0.084
//
molecule: CCCCCCCC/C=C\CCCCCCCC(=O)OCC(COC(=O)CCCCCCC/C=C\CCCCCCCC)(COC(=O)CCCCCCC/C=C\CCCCCCCC)COC(=O)CCC(CCCCCC)OC(=O)NCCN1CCCC1 (stereo not shown)
result.number: 0.153

Attention now turns to another entry.
# PDI N/P:3 (molecule: CCCCC/C=C\CCOC(=O)CCCCCCC(=O)OCC(COC(=O)CCCCCCC(=O)OCC/C=C\CCCCC)(COC(=O)CCCCCCC(=O)OCC/C=C\CCCCC)COC(=O)CCC(CCCCCC)OC(=O)NCCN1CCCC1 (stereo not shown) ) is 0.278

====

Recorded measurements of Size (nm) N/P:3, one per entry
- assay.protocol: Dynamic light scattering: LNP particle size and PDI
- Type: physicochemical
- test.parameters: LNP, Formulation F2, N/P 3
Record the value in nm, omitting the unit from your answer.

Sample answers from the record:
molecule: CCCCC/C=C\C/C=C\CCCCCCCC(=O)OCC(COC(=O)CCCCCCC/C=C\C/C=C\CCCCC)(COC(=O)CCC(CCCCCC)OC(=O)NCCN1CCCC1)COC(=O)CCC(OCCCCCCCC)OCCCCCCCC (stereo not shown) [Compound 6]
result.number: 89

molecule: CCCCC/C=C\CCOC(=O)CCCCCCC(=O)OCC(COC(=O)CCCCCCC(=O)OCC/C=C\CCCCC)(COC(=O)CCCCCCC(=O)OCC/C=C\CCCCC)COC(=O)CCC(CCCCCC)OC(=O)NCCN1CCCC1 (stereo not shown) [Compound 10]
result.number: 102

molecule: CCCCCCCC/C=C\CCCCCCCC(=O)OCC(COC(=O)CCCCCCC/C=C\CCCCCCCC)(COC(=O)CCC(CCCCCC)OC(=O)NCCN1CCCC1)COC(=O)CCC(OCCCCCCCC)OCCCCCCCC (stereo not shown) [Compound 4]
result.number: 97

Attention now turns to another entry.
# Size (nm) N/P:3 (molecule: CCCCCCCC/C=C\CCCCCCCC(=O)OCC(COC(=O)CCCCCCC/C=C\CCCCCCCC)(COC(=O)CCCCCCC/C=C\CCCCCCCC)COC(=O)CCC(CCCCCC)OC(=O)NCCN1CCCC1 (stereo not shown) [Compound 1] ) is 99

====

- Test system: mouse organs
- assay.protocol: In vivo activity screening in mice: organ mean total flux (p/s) of luciferase activity after injection of F2 LNP pools (Table 6, FIG. 7A-7C)
- test.parameters: Mouse 3, dose 1.0 mg/kg, luciferase mRNA
Marks after values point to notes of the source that are not given here.
Recorded measurements of Organ Mean Total Flux Heart, one per entry

compound: CCCCC/C=C\CCOC(=O)CCCCC(=O)OCC(COC(=O)CCCCC(=O)OCC/C=C\CCCCC)(COC(=O)CCC(CCCCCC)OC(=O)NCCN1CCCC1)COC(=O)CC12CC3CC(CC(C3)C1)C2 (centres unmarked) [Compound 14]
recorded.endpoint: Organ Mean Total Flux Heart
result: 8.6 p/s (×10^6)
--
compound: CCCCCCC(CCC(=O)OCC(COC(=O)CCCC(=O)OCCC(CCCCC)CCCCC)(COC(=O)CCCC(=O)OCCC(CCCCC)CCCCC)COC(=O)CCCC(=O)OCCC(CCCCC)CCCCC)OC(=O)NCCN1CCCC1 (centres unmarked) [Compound 54]
recorded.endpoint: Organ Mean Total Flux Heart
result: 19.3 p/s (×10^6)
--
compound: CCCCCCC(CCC(=O)OCC(COC(=O)CCCCOC(=O)C(CCCC)CCCCCC)(COC(=O)CCCCOC(=O)C(CCCC)CCCCCC)COC(=O)CCCCOC(=O)C(CCCC)CCCCCC)OC(=O)NCCN1CCCC1 (centres unmarked) [Compound 56]
recorded.endpoint: Organ Mean Total Flux Heart
result: 17.7 p/s (×10^6)
--
compound: CCCCCCC(CCC(=O)OCC(COC(=O)CCCCC(=O)OCCC(CCCC)CCCCC)(COC(=O)CCCCC(=O)OCCC(CCCCC)CCCCC)COC(=O)CCCCC(=O)OCCC(CCCCC)CCCCC)OC(=O)NCCN1CCCC1 (centres unmarked) [Compound 53]
recorded.endpoint: Organ Mean Total Flux Heart
result: 2.1 p/s (×10^6)

# Organ Mean Total Flux Heart (compound: CCCCCCC(CCC(=O)OCC(COC(=O)CCCCCOC(=O)C(CCCC)CCCCCC)(COC(=O)CCCCCOC(=O)C(CCCC)CCCCCC)COC(=O)CC12CC3CC(CC(C3)C1)C2)OC(=O)NCCN1CCCC1 (centres unmarked) [Compound 58] ) is 2.8 p/s (×10^6)

====

- assay.protocol: Dynamic light scattering: LNP particle size and PDI
- Format: physicochemical
- test.parameters: LNP, Formulation F3, N/P 6
Recorded measurements of PDI N/P:6, one per entry
The reply should be a number, written without any unit.

Sample answers from the record:
compound: CCCCC/C=C\CCOC(=O)CCCCCC(=O)OCC(COC(=O)CCCCCCOC(=O)C(CCCC)CCCCCC)(COC(=O)CCCCCC(=O)OCC/C=C\CCCCC)COC(=O)CCC(CCCCCC)OC(=O)NCCN1CCCC1 (centres unmarked)
recorded.endpoint: PDI N/P:6
result.number: 0.04
--
compound: CCCCC/C=C\CCOC(=O)CCCCCCC(=O)OCC(COC(=O)CCCCCCC(=O)OCC/C=C\CCCCC)(COC(=O)CCC(CCCCCC)OC(=O)NCCN1CCCC1)COC(=O)CC12CC3CC(CC(C3)C1)C2 (centres unmarked)
recorded.endpoint: PDI N/P:6
result.number: 0.14
--
compound: CCCCC/C=C\CCOC(=O)CCCCCCC(=O)OCC(COC(=O)CCCCCCC(=O)OCC/C=C\CCCCC)(COC(=O)CCCCCCC(=O)OCC/C=C\CCCCC)COC(=O)CCC(CCCCCC)OC(=O)NCCN1CCCC1 (centres unmarked)
recorded.endpoint: PDI N/P:6
result.number: 0.092
--
compound: CCCCC/C=C\C/C=C\CCCCCCCC(=O)OCC(COC(=O)CCCCCCC/C=C\C/C=C\CCCCC)(COC(=O)CCCCCCC/C=C\C/C=C\CCCCC)COC(=O)CCC(CCCCCC)OC(=O)NCCN1CCCC1 (centres unmarked)
recorded.endpoint: PDI N/P:6
result.number: 0.04

Attention now turns to another entry.
# PDI N/P:6 (compound: CCCCC/C=C\CCOC(=O)CCCCCCC(=O)OCC(COC(=O)CCCCCCC(=O)OCC/C=C\CCCCC)(COC(=O)CCC(CCCCCC)OC(=O)NCCN1CCCC1)COC(=O)CCC(OCCCCCCCC)OCCCCCCCC (centres unmarked) ) is 0.04

====

Recorded measurements of Organ Mean Total Flux Femur, one per entry
- Test system: mouse organs
- assay.protocol: In vivo activity screening in mice: organ mean total flux (p/s) of luciferase activity after injection of F2 LNP pools (Table 6, FIG. 7A-7C)
- test.parameters: Mouse 13, dose 0.5 mg/kg, luciferase mRNA
Marks after values point to notes of the source that are not given here.

molecule: CCCCC/C=C\CCOC(=O)CCCC(=O)OCC(COC(=O)CCCC(=O)OCC/C=C\CCCCC)(COC(=O)CCCC(=O)OCC/C=C\CCCCC)COC(=O)CCC(CCCCCC)OC(=O)NCCN1CCCC1 (stereo not shown)
Organ Mean Total Flux Femur: 10.2 p/s (×10^6)

molecule: CCCCCCC(CCC(=O)OCC(COC(=O)CCCCOC(=O)C(CCCC)CCCCCC)(COC(=O)CCCCOC(=O)C(CCCC)CCCCCC)COC(=O)CC12CC3CC(CC(C3)C1)C2)OC(=O)NCCN1CCCC1 (stereo not shown)
Organ Mean Total Flux Femur: 2.6 p/s (×10^6)

molecule: CCCCC/C=C\CCOC(=O)CCCCC(=O)OCC(COC(=O)CCCCC(=O)OCC/C=C\CCCCC)(COC(=O)CCC(CCCCCC)OC(=O)NCCN1CCCC1)COC(=O)CC12CC3CC(CC(C3)C1)C2 (stereo not shown)
Organ Mean Total Flux Femur: 8.3 p/s (×10^6)

molecule: CCCCC/C=C\C/C=C\CCCCCCCCC(CCCCCCCC/C=C\C/C=C\CCCCC)OC(=O)CCCN(C)C [MC3, reference compound]
Organ Mean Total Flux Femur: 2.7 p/s (×10^6)

molecule: CCCCCCCCCOC(=O)CCCCC(=O)OCC(COC(=O)CCCCC(=O)OCCCCCCCCC)(COC(=O)CCCCC(=O)OCCCCCCCCC)COC(=O)CCC(CCCCCC)OC(=O)NCCN1CCCC1 (stereo not shown)
Organ Mean Total Flux Femur: 1.2 p/s (×10^6)

# Organ Mean Total Flux Femur (molecule: CCCCC/C=C\CCOC(=O)CCCCC(=O)OCC(COC(=O)CCCCC(=O)OCC/C=C\CCCCC)(COC(=O)CCC(CCCCCC)OC(=O)NCCN1CCCC1)COC(=O)CCC(OCCCCCCCC)OCCCCCCCC (stereo not shown) ) is 1.3 p/s (×10^6)

# Organ Mean Total Flux Femur (molecule: CCCCC/C=C\CCOC(=O)CCCCC(=O)OCC(COC(=O)CCCCC(=O)OCC/C=C\CCCCC)(COC(=O)CCC(CCCCCC)OC(=O)NCCN1CCCC1)COC(=O)C1CCC2C(C1)C2(F)F (stereo not shown) ) is 26.0 p/s (×10^6)
